From: the supplement of paper PMC7125110

Measured self-cleavage kobs at 40 uM GlcN6P accompanies every entry in the list below.
B1: glmS ribozyme (parent)
chain: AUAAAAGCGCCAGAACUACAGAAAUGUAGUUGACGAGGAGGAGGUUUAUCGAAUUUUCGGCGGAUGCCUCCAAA

# Variants of: B1
# assay.procedure: self-cleavage kobs at 40 uM GlcN6P; higher = faster cleavage; RNA array
# condition.summary: with glucosamine-6-phosphate
Fewer inactive variants are shown than the library holds.

[
  {
    "record.sequence": "AUAAAAGCGCCAGAACUACAGAAAUGUACUUGACGAGGAGGAGGAUUAUCGAAUUUUCGGCGGAUGCCUCCAAA",
    "metric": "self-cleavage kobs at 40 uM GlcN6P",
    "reported": "7.41e-05 s⁻¹"
  }
]

Turning now to a further variant:
Give its self-cleavage kobs at 40 uM GlcN6P value. Item: AUAAAAGCGCCCGAACUACAGAAAUGUAGUAGACGAGGAGGAGGUUUAUCGAAUUUUCGGCGGAUGCCUCCAAA
0.000142 s⁻¹
